Target: Aminopeptidase N (Plasmodium falciparum (isolate 3D7)) (UniProt O96935)
Sequence (O96935 whole entry, looked up): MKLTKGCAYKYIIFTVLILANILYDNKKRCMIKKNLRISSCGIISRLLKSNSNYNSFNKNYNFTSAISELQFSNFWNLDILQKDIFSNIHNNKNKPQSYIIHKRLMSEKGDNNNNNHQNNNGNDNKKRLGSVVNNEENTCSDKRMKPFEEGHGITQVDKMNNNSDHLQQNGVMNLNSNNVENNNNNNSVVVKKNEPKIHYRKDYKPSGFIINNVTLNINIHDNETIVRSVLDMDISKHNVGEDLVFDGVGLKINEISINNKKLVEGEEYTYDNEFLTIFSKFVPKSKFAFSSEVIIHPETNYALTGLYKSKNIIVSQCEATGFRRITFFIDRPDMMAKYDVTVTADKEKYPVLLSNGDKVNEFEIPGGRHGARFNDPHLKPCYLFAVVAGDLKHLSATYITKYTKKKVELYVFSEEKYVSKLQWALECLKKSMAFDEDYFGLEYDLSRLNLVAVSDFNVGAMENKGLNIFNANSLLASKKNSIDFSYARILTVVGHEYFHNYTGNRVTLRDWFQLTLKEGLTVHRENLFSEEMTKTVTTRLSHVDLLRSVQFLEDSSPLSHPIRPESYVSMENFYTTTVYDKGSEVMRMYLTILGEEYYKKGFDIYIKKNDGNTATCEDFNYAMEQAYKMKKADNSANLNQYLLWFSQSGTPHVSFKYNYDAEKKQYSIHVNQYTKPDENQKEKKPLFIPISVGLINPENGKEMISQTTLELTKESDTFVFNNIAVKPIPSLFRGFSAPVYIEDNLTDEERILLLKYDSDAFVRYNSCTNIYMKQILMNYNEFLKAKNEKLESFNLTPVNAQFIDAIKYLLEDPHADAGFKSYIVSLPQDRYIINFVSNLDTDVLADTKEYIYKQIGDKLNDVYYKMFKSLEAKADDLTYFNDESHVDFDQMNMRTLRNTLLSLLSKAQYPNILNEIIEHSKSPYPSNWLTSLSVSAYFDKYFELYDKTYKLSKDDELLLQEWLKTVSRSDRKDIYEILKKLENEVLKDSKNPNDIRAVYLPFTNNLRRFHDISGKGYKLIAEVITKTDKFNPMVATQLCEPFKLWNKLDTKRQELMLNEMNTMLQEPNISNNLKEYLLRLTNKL
Experiment: malaria alanyl aminopeptidase activity blockers – biochemical, fluorogenic H-Leu-NHMec substrate, 1536-well (AID 1445)
Conditions: recombinant M1AAP, H-Leu-NHMec fluorogenic kinetic assay; at 30 µM
In all, about 220,000 compounds went through this assay and about 910 (0.41%) were called active.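 The calls were made as follows: active = primary inhibition above the hit cutoff, then over 50% inhibition at one or more dose response concentrations (cut at about 23% in these data, passing the limit was not always enough); inconclusive = conflicting primary data, or primary hits not chosen for dose response; inactive = low primary inhibition, or under 50% at every dose.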 What follows is part of a selection rich in actives, with near analogues and random picks from the rest. Entries with a potency or affinity are not part of this list.
Parameter call: string, one of y = active, n = inactive

These solved cases illustrate the format of a correct answer.
Compound	Label Class
CCCCc1nc(NCc2ccccc2)c(C#N)c2c1COC(C)(C)C2	n
CCOC(=O)N(CC)OC(=O)Nc1ccc(Cl)cc1	n
CCCCc1nc(Cl)c(C#N)c2c1CSC(C)(C)C2	n

Prompt: Recorded call for COc1cc(/C=N/Nc2nc3ccccc3s2)cc([N+](=O)[O-])c1O ?
Completion: n

Prompt: Recorded call for C=CCn1c(SCC(=O)/C(C#N)=C(\C)N)nc2sc(CC)cc2c1=O ?
Completion: n

Prompt: Test call for this compound, please: CC(=O)/C=C(\C)N=Nc1c(O)[nH]c2ccccc12
Completion: n

Prompt: Could you check what this test reported for CCCCc1nc(NCCNC(=O)c2ccccc2)c(C#N)c2c1CSC(C)(C)C2 ?
Completion: y

Prompt: Could you please tell me the result logged for CCc1nc(NCCN)c(C#N)c2c1CSC(C)(C)C2 in this assay?
Completion: n

Prompt: Recorded test outcome, item CC(c1ccccc1)n1c(Cn2ncc3ccccc3c2=O)n[nH]c1=S (stereo unspecified)
Completion: n

Prompt: Returns: the outcome recorded for COc1ccc(-c2csc(/C(C#N)=C\c3ccc(O)c([N+](=O)[O-])c3)n2)cc1OC in this assay.
Completion: n

Prompt: What is the recorded call for this compound in the test? CCOC(=O)N(C)OC(=O)Nc1ccc(Cl)c(Cl)c1
Completion: y

Data credit: PubChem BioAssay AID1445
